Data origin: patent US9113629B2

Tested on: Key Broadleaf Weed and Crop Species
Assay: Post-emergent Test II herbicidal activity (Table 5)
Assay type: in vivo
Conditions: post-emergence, 336 h; HELAN: sunflower (Helianthus annuus); application rate 70 g ai/ha; 14 days after application; read-out: Visual Growth Reduction (%) 14 Days After Application, HELAN
Source text: Post-emergent Test II: Seeds or nutlets of the desired test plant species were planted in Sun Gro Metro-Mix® 360 planting mixture, which typically has a pH of 6.0 to 6.8 and an organic matter content of about 30 percent, in plastic pots with a surface area of 64 square centimeters. When required to ensure good germination and healthy plants, a fungicide treatment and/or other chemical or physical treatment was applied. […]
Item-by-item account of pest or weed control at 70 g/ha

Previously resolved entries follow.
>  <compound>
Nc1c(F)c(-c2ccc(I)c(F)c2)nc(C(=O)O)c1Cl [Compound 157]

>  <assay.target>
Key Broadleaf Weed and Crop Species

>  <pest or weed control at 70 g/ha>
95 to 100%

$$$$
>  <compound>
COC(=O)c1nc(-c2ccc(Br)c(F)c2F)nc(N)c1OC [Compound 122]

>  <assay.target>
Key Broadleaf Weed and Crop Species

>  <pest or weed control at 70 g/ha>
85 to 94%

$$$$
>  <compound>
COC(=O)c1nc(-c2ccc(OC(F)F)cc2)nc(N)c1OC [Compound 106]

>  <assay.target>
Key Broadleaf Weed and Crop Species

>  <pest or weed control at 70 g/ha>
0 to 29%

$$$$
>  <compound>
Nc1c(F)c(-c2ccc(Br)cc2)nc(C(=O)O)c1Cl [Compound 20]

>  <assay.target>
Key Broadleaf Weed and Crop Species

>  <pest or weed control at 70 g/ha>
95 to 100%

$$$$
>  <compound>
Nc1c(F)c(-c2ccc(OC(F)F)cc2F)nc(C(=O)O)c1Cl [Compound 140]

>  <assay.target>
Key Broadleaf Weed and Crop Species

>  <pest or weed control at 70 g/ha>
60 to 74%

$$$$

We now examine a further compound.
## Input Fill blank: measured pest or weed control at 70 g/ha of the compound COC(=O)c1nc(-c2ccc(OC(F)F)c(F)c2F)c(F)c(N)c1Cl [Compound 103] is ____.
## Output 75 to 84%
